List of SH2 binding enrichment values.
ASSAYED SYSTEM: c-Src SH2;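 also: peptide library displayed on the E. coli surface as eCPX fusions, selected cells deep-sequenced, score is each peptide's frequency after selection divided by its frequency in the input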
ASSAY DETAILS: SH2 binding enrichment of the phosphorylated peptide, bacterial display (enrichment ratio); higher = better substrate or ligand; peptides without Tyr show the background
READOUT TYPE: SH2 binding enrichment

- KATKGYLDDPT [G6PD_Y322_E317K]: 0.489
- KDHPDYEYQPR [SOX9_Y172_K173E]: 0.586
- PRQRRYVFFFS [PTEN_Y174_S170R_YF]: 0.453
- TLRKTYGEMAD [ALB_Y108_E106K]: 0.449
- GLSDLYVKIHL [SYT2_Y309_P308L]: 0.567
- HITQVYGFFDE [PPP2CA_Y127_Q122H_YF]: 0.838
- KRAIGHYSATS [FAM120A_Y327_Y327H]: 0.778
- KSAAIYNPVIF [RHO_Y301_YF]: 0.589
